Test system: TNFα-FL/Gaussia Luciferase
Test: Dox Induced TNFα-FL-Gluc Assay
Assay type: cell-based
Conditions: 24 hr Dox induction; 293FRT/TO cells; read-out: 24 hr Dox Inducible TNFaFLGluc 293FRT/TO: Mean IC50
Kindly state log10 of IC50 for each of the entries shown.
Please note: log10 values; quantity IC50; unit µM.

Looking up CN1CCC(Oc2ccc(N3CCC[C@@H]3c3csc(NC(=O)c4cccn4Cc4ccncc4)n3)cc2)CC1 , I found its log10 of IC50 recorded as 1.13

Looking up CC(=O)N1CCC(Oc2ccc(N3CCC[C@@H]3c3csc(NC(=O)c4cccn4Cc4ccncc4)n3)cc2)CC1 , I found its log10 of IC50 recorded as -0.48

Looking up O=C(Nc1nc(/C=C/c2ncoc2C2CCCCC2)cs1)c1cccn1Cc1ccncc1 , I found its log10 of IC50 recorded as 0.68

Looking up Cc1cc(C(=O)Nc2nc([C@H]3CCCN3c3ccc(OC4CCN(C(N)=O)CC4)cc3)cs2)n(Cc2ccnc(F)c2)c1 , I found its log10 of IC50 recorded as -0.13

Looking up CC(=O)N1CCC(Oc2ccc(N3CCC[C@@H]3c3csc(NC(=O)c4cccn4Cc4ccnc(F)c4)n3)c(C#N)c2)CC1 , I found its log10 of IC50 recorded as -0.05

----------
Assay: Liver Microsome Stability Assay (monkey)
Details: monkey liver microsomes, with NADPH, 1.0 uM compound
Kindly state Liver Microsome Stability (Multiple Species): Monkey - % Remaining after 30 min w/NADPH for each of the entries shown.
Unit % implied. Number only.

Looking up CC(=O)NCc1ccc(N2CCC[C@@H]2c2csc(NC(=O)c3cccn3Cc3ccnc(F)c3)n2)cc1 [Compound A64] , I found its Liver Microsome Stability (Multiple Species): Monkey - % Remaining after 30 min w/NADPH recorded as 0.78

Looking up CC(=O)N1CC(Oc2ccc(N3CCC[C@@H]3c3csc(NC(=O)c4cccn4Cc4ccnc(F)c4)n3)cc2)C1 [Compound A81] , I found its Liver Microsome Stability (Multiple Species): Monkey - % Remaining after 30 min w/NADPH recorded as 8.77

Looking up O=C(Nc1nc([C@H]2CCCN2c2ccc(C(F)(F)F)cc2)cs1)c1cccn1CC1CCOCC1 [Compound C91] , I found its Liver Microsome Stability (Multiple Species): Monkey - % Remaining after 30 min w/NADPH recorded as 28.2

Looking up O=C(Nc1nc(/C=C/c2ccon2)cs1)c1cccn1Cc1ccncc1 [Compound B5] , I found its Liver Microsome Stability (Multiple Species): Monkey - % Remaining after 30 min w/NADPH recorded as 0.47

Looking up O=C(Nc1nc([C@H]2CCCN2c2ccccc2)cs1)c1cccn1CCCC1CCOC1 (some centres unmarked) [Compound C92] , I found its Liver Microsome Stability (Multiple Species): Monkey - % Remaining after 30 min w/NADPH recorded as 5.09

Looking up O=C(Nc1nc([C@H]2CCCN2c2ccccc2)cs1)c1cccn1CC1CCS(=O)(=O)CC1 [Compound C37] , I found its Liver Microsome Stability (Multiple Species): Monkey - % Remaining after 30 min w/NADPH recorded as 8.58

Looking up Cc1nc(CCc2csc(NC(=O)c3cccn3Cc3ccncc3)n2)co1 [Compound E4] , I found its Liver Microsome Stability (Multiple Species): Monkey - % Remaining after 30 min w/NADPH recorded as 0.14

Looking up CC(C)n1cncc1/C=C/c1csc(NC(=O)c2cccn2Cc2ccncc2)n1 [Compound B57] , I found its Liver Microsome Stability (Multiple Species): Monkey - % Remaining after 30 min w/NADPH recorded as 2.84

----------
Kindly state 24 hr Dox Inducible IL2FLGluc 293FRT/TO: IL2/PD1 for each of the entries shown.
Test system: IL-2-FL/Gaussia Luciferase
Assay: Dox Induced IL2-FL-Gluc Assay
Type: cell-based
Details: ratio of IL2FLGluc IC50 to PD1ssGluc IC50
Please state the value as a number alone, without comment.

Looking up O=C(Nc1nc(-c2ccccc2-c2ccccn2)cs1)c1cccn1Cc1ccnc(F)c1 , I found its 24 hr Dox Inducible IL2FLGluc 293FRT/TO: IL2/PD1 recorded as 1.5

Looking up CC(=O)N1CCC(Cc2ccc(N3CCC[C@@H]3c3csc(NC(=O)c4cccn4Cc4ccnc(F)c4)n3)cc2)CC1 , I found its 24 hr Dox Inducible IL2FLGluc 293FRT/TO: IL2/PD1 recorded as 2

Looking up CCc1cc(/C=C/c2csc(NC(=O)c3cccn3Cc3ccnc(F)c3)n2)no1 , I found its 24 hr Dox Inducible IL2FLGluc 293FRT/TO: IL2/PD1 recorded as 6.1

Looking up CC(=O)Nc1c(F)cc(N2CCC[C@@H]2c2csc(NC(=O)c3cccn3Cc3ccnc(F)c3)n2)cc1F , I found its 24 hr Dox Inducible IL2FLGluc 293FRT/TO: IL2/PD1 recorded as 2.8

----------
Tested on: TNFα-FL/Gaussia Luciferase
Assay: Dox Induced TNFα-FL-Gluc Assay
Assay type: cell-based
Conditions: ratio of TNFaFLGluc IC50 to PD1ssGluc IC50
quantity_name: 24 hr Dox Inducible TNFaFLGluc 293FRT/TO: TNF/PD1
Please state the value as a number alone, without comment.

Looking up Cc1cnn(C(C)C)c1/C=C/c1csc(NC(=O)c2cccn2Cc2ccnc(F)c2)n1 [Compound B84] , I found its 24 hr Dox Inducible TNFaFLGluc 293FRT/TO: TNF/PD1 recorded as 1.84

Looking up NC(=O)N1CCC(Oc2ccc(N3CCC[C@@H]3c3csc(NC(=O)c4cccn4Cc4ccnc(F)c4)n3)cc2)CC1 [Compound A135] , I found its 24 hr Dox Inducible TNFaFLGluc 293FRT/TO: TNF/PD1 recorded as 33.6

Looking up O=C(Nc1nc(/C=C/c2ncoc2C2CCCCC2)cs1)c1cccn1Cc1ccncc1 [Compound B52] , I found its 24 hr Dox Inducible TNFaFLGluc 293FRT/TO: TNF/PD1 recorded as 190

Looking up CC(C)Oc1ccc(N2CCC[C@@H]2c2csc(NC(=O)c3cccn3Cc3ccnc(F)c3)n2)cc1 [Compound A120] , I found its 24 hr Dox Inducible TNFaFLGluc 293FRT/TO: TNF/PD1 recorded as 6.44

Looking up O=C(CO)Nc1ccc(N2CCC[C@@H]2c2csc(NC(=O)c3cccn3Cc3ccnc(F)c3)n2)cc1 [Compound A141] , I found its 24 hr Dox Inducible TNFaFLGluc 293FRT/TO: TNF/PD1 recorded as 18

Looking up O=C(Nc1nc([C@H]2CCCN2c2ccc(C(F)(F)F)cc2)cs1)c1cccn1Cc1ccncc1 [Compound A28] , I found its 24 hr Dox Inducible TNFaFLGluc 293FRT/TO: TNF/PD1 recorded as 23.9

Looking up CC(=O)N1CC(OC(=O)Nc2ccc(N3CCC[C@@H]3c3csc(NC(=O)c4cccn4Cc4ccnc(F)c4)n3)cc2)C1 [Compound A179] , I found its 24 hr Dox Inducible TNFaFLGluc 293FRT/TO: TNF/PD1 recorded as 52.3

Looking up CN(C)C(=O)c1ccc(N2CCC[C@@H]2c2csc(NC(=O)c3cccn3Cc3ccncc3)n2)cc1 [Compound A18] , I found its 24 hr Dox Inducible TNFaFLGluc 293FRT/TO: TNF/PD1 recorded as 15.9

Looking up O=C(Nc1nc([C@H]2CCCN2c2ccc(OC3COC3)cc2)cs1)c1cccn1Cc1ccncc1 [Compound A2] , I found its 24 hr Dox Inducible TNFaFLGluc 293FRT/TO: TNF/PD1 recorded as 11.6

Looking up O=C(Nc1nc([C@H]2CCCN2c2ccc(OC3CS(=O)(=O)C3)cc2)cs1)c1cccn1Cc1ccnc(F)c1 [Compound A158] , I found its 24 hr Dox Inducible TNFaFLGluc 293FRT/TO: TNF/PD1 recorded as 11.7

Looking up CC(=O)N1CCCC(c2ccc(N3CCC[C@@H]3c3csc(NC(=O)c4cccn4Cc4ccncc4)n3)cc2)C1 (stereo partly drawn) [Compound A63] , I found its 24 hr Dox Inducible TNFaFLGluc 293FRT/TO: TNF/PD1 recorded as 13.2

----------
Kindly state 24 hr Dox Inducible TNFaFLGluc 293FRT/TO: TNF/PD1 for each of the entries shown.
System: TNFα-FL/Gaussia Luciferase
Test: Dox Induced TNFα-FL-Gluc Assay
Format: cell-based
Conditions: ratio of TNFaFLGluc IC50 to PD1ssGluc IC50
Please state the value as a number alone, without comment.

Looking up CC(=O)N1CC(Oc2ccc(N3CCC[C@@H]3c3csc(NC(=O)c4cccn4Cc4ccnc(F)c4)n3)cc2)C1 [Compound A81] , I found its 24 hr Dox Inducible TNFaFLGluc 293FRT/TO: TNF/PD1 recorded as 10.2

Looking up CS(=O)(=O)Nc1ccc(N2CCC[C@@H]2c2csc(NC(=O)c3cccn3Cc3ccnc(F)c3)n2)cc1 [Compound A118] , I found its 24 hr Dox Inducible TNFaFLGluc 293FRT/TO: TNF/PD1 recorded as 8.6

Looking up O=C(Nc1nc(/C=C/c2ncoc2C2CCCCC2)cs1)c1cccn1Cc1ccnc(F)c1 [Compound B53] , I found its 24 hr Dox Inducible TNFaFLGluc 293FRT/TO: TNF/PD1 recorded as 101

Looking up O=C(Nc1nc([C@H]2CCCN2c2ccccc2)cs1)c1cccn1Cc1cc(F)nc(F)c1 [Compound A60] , I found its 24 hr Dox Inducible TNFaFLGluc 293FRT/TO: TNF/PD1 recorded as 13.5

Looking up CC(=O)N[C@H](C)c1ccc(N2CCC[C@@H]2c2csc(NC(=O)c3cccn3Cc3ccncc3)n2)cc1 [Compound A66] , I found its 24 hr Dox Inducible TNFaFLGluc 293FRT/TO: TNF/PD1 recorded as 21.5

Looking up COCCOc1ccc(N2CCC[C@@H]2c2csc(NC(=O)c3cccn3Cc3ccnc(F)c3)n2)cc1 [Compound A127] , I found its 24 hr Dox Inducible TNFaFLGluc 293FRT/TO: TNF/PD1 recorded as 19

Looking up CC(C)OC(=O)Nc1ccc(N2CCC[C@@H]2c2csc(NC(=O)c3cccn3Cc3ccnc(F)c3)n2)cc1 [Compound A146] , I found its 24 hr Dox Inducible TNFaFLGluc 293FRT/TO: TNF/PD1 recorded as 21.1

Looking up O=C(Nc1nc([C@H]2CCCN2c2ccc(OC3CCNC3)cc2)cs1)c1cccn1Cc1ccnc(F)c1 (stereo partly shown) [Compound A80] , I found its 24 hr Dox Inducible TNFaFLGluc 293FRT/TO: TNF/PD1 recorded as 19.1

Looking up O=C(Nc1nc([C@H]2CCCN2c2ccc(O[C@H]3CCCNC3)cc2)cs1)c1cccn1Cc1ccnc(F)c1 [Compound A88] , I found its 24 hr Dox Inducible TNFaFLGluc 293FRT/TO: TNF/PD1 recorded as 11.5

Looking up O=C(Nc1nc([C@H]2CCCN2c2ccc(Br)cc2)cs1)c1cccn1Cc1ccnc(F)c1 [Compound A116] , I found its 24 hr Dox Inducible TNFaFLGluc 293FRT/TO: TNF/PD1 recorded as 19.7

Looking up O=C(Nc1nc(/C=C/c2cn(C3CCCCC3)cn2)cs1)c1cccn1Cc1ccncc1 [Compound B54] , I found its 24 hr Dox Inducible TNFaFLGluc 293FRT/TO: TNF/PD1 recorded as 1370

Looking up CC(C)n1cnc(-c2ccccc2-c2csc(NC(=O)c3cccn3Cc3ccnc(F)c3)n2)c1 [Compound A169] , I found its 24 hr Dox Inducible TNFaFLGluc 293FRT/TO: TNF/PD1 recorded as 7.13
